- target: phosphorylated BTK in Ramos cells (Homo sapiens (Human))
- Sequence (Q06187 whole entry): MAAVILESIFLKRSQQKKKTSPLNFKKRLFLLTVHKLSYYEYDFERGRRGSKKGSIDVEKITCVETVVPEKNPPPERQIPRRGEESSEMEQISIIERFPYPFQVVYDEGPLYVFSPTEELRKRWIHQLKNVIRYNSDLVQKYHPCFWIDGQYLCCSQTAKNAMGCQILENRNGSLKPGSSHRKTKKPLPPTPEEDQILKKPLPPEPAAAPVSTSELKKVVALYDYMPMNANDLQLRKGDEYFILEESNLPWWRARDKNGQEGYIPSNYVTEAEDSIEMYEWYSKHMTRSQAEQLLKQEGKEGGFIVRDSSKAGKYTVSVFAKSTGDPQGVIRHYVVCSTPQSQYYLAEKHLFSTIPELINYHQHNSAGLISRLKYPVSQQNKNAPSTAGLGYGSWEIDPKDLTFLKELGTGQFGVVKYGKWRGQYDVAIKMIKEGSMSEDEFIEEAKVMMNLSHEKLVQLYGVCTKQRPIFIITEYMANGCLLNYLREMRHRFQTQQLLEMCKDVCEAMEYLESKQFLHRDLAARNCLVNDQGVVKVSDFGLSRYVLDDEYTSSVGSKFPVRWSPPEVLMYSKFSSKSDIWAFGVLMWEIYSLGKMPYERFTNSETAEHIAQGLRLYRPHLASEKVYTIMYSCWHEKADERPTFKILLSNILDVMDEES
- measurement_description: Determination of phosphorylated BTK in Ramos cells (BTK phospho-Y223 HTRF)
- test_parameters: anti-human IgM + hydrogen peroxide stimulation
measured_metric: IC50 (nM)

Some entries whose results are on file:
| compound | target | units_of_measure | IC50 |
| --- | --- | --- | --- |
| C[C@H]1CN(C2COC2)CCN1c1ccc(Nc2cc(-c3ccnc(-n4cnn5c6c(cc5c4=O)CCCC6)c3CO)cn(C)c2=O)nc1 [Compound 184] | phosphorylated BTK in Ramos cells (Homo sapiens (Human)) | nM | 80 |
| Cn1cc(-c2ccnc(-n3ccn4c5c(cc4c3=O)CC(C)(C)C5)c2CO)cc(Nc2ccc(C3=CCN(C4COC4)CC3)cn2)c1=O [Compound 36] | phosphorylated BTK in Ramos cells (Homo sapiens (Human)) | nM | 12 |

[A] Cn1cc(-c2ccnc(-n3ncn4c5c(cc4c3=O)CC(C)(C)C5)c2CO)cc(Nc2cc3n(n2)CCN(C2COC2)C3)c1=O [Compound 122]
[B] C[C@@H]1CN(c2ccc(Nc3cc(-c4ccnc(-n5ncn6c7c(c(F)c6c5=O)CCCC7)c4CO)cn(C)c3=O)nc2)[C@@H](C)CN1C1COC1 [Compound 221]
[C] [2H]C([2H])([2H])n1cc(-c2ccnc(-n3ccn4c5c(cc4c3=O)CC(C)(C)C5)c2CO)cc(Nc2ccc(N3CCN(C4COC4)C[C@@H]3C)cn2)c1=O [Compound 97]
[D] COCCN1CCn2nc(Nc3cc(-c4ccnc(-n5ncn6c7c(cc6c5=O)CC(C)(C)C7)c4CO)cn(C)c3=O)cc2[C@@H]1C [Compound 119]
Query block: Put the compounds in ascending order of IC50. Please list the labels in the order you were asked to rank them.
Result block: D, C, A, B
(D: 2 nM, C: 3 nM, A: 7 nM, B: 12 nM)

====

- target: phosphorylated BTK in Ramos cells (Homo sapiens (Human))
- measurement_description: Determination of phosphorylated BTK in Ramos cells (BTK phospho-Y223 HTRF)
- test_parameters: anti-human IgM + hydrogen peroxide stimulation
measured_metric: IC50 (nM)

| molecule | target | IC50 [nM] |
| --- | --- | --- |
| C[C@@H]1CN(c2ccc(Nc3cc(-c4ccnc(-n5ncn6c7c(cc6c5=O)CC(C)(C)C7)c4CO)cn(C)c3=O)nn2)[C@@H](C)CN1C1COC1 | phosphorylated BTK in Ramos cells (Homo sapiens (Human)) | 5 |

[1] Cn1cc(-c2ccnc(-n3ccn4c5c(cc4c3=O)CC(C)(C)C5)c2CO)cc(Nc2ccc(N3CCN(C4COC4)CC3)nn2)c1=O
[2] COc1ccc(Nc2cc(-c3ccnc(-n4ccn5c6c(cc5c4=O)CC(C)(C)C6)c3CO)cn(C)c2=O)nc1
Query block: Given 1 and given 2 , which shows the smaller recorded IC50? Please identify the chosen entry by its label.
Result block: 1
(1: 8 nM, 2: 20 nM)

====

- target: phosphorylated BTK in Ramos cells (Homo sapiens (Human))
- measurement_description: Determination of phosphorylated BTK in Ramos cells (BTK phospho-Y223 HTRF)
- test_parameters: anti-human IgM + hydrogen peroxide stimulation
pIC50: −log10 of the molar value.
measured_metric: pIC50

[a] C[C@H]1CN(CC#N)CCN1c1ccc(Nc2cc(-c3ccnc(-n4ccn5c6c(cc5c4=O)CC(C)(C)C6)c3CO)cn(C)c2=O)nc1
[b] CCn1cc(Nc2nc(-c3ccnc(-n4ccn5c6c(cc5c4=O)CC(C)(C)C6)c3CO)cn(C)c2=O)nn1
Query block: Identify the entry with the larger pIC50. Options: a and b Label of pick, please.
Result block: a
(a: 8.70, b: 6.47)
